This collection of values is drawn from patent US20230172206A1.

tested on: Phakopsora pachyrhizi (F129L); experiment: Protective control of soybean rust on soybeans (PHAKPA P6); assay type: in vivo; conditions: protective P6, 16 ppm, soybean rust F129L isolate
MEASURE_NAME: % PHAKPA (F129L) Disease level P6 at 16 ppm (%)
Answer format: numeric, % implied, no suffix.

**Query** Give the measured % PHAKPA (F129L) Disease level P6 at 16 ppm of `CNC(=O)/C(=N/OC)c1cccc(C)c1CO/N=C(\CC1CC1)c1cccc(C(F)(F)F)c1` .
**Result** 15

**Query** Endpoint output: % PHAKPA (F129L) Disease level P6 at 16 ppm of `CO/C=C(/C(=O)OC)c1cccc(C)c1CO/N=C(\C)c1cccc(C(F)(F)F)c1` . Value?
**Result** 0

**Query** Look up % PHAKPA (F129L) Disease level P6 at 16 ppm: `CNC(=O)/C(=N/OC)c1cccc(C)c1CO/N=C(\CC(C)C)c1cccc(C(F)(F)F)c1`
**Result** 77

**Query** What does the data say about its % PHAKPA (F129L) Disease level P6 at 16 ppm? Entry: `CNC(=O)/C(=N/OC)c1cccc(C)c1CO/N=C(\C)c1cc(Cl)ccc1C(F)(F)F`
**Result** 2

**Query** What does the record list as % PHAKPA (F129L) Disease level P6 at 16 ppm for `CO/N=C(/C(=O)OC)c1cccc(C)c1CO/N=C(\C)c1ccccc1C#N` ?
**Result** 100

**Query** Quick one: % PHAKPA (F129L) Disease level P6 at 16 ppm of `CNC(=O)/C(=N/OC)c1cccc(C)c1CO/N=C(\C)c1c(F)cccc1Cl` ?
**Result** 34

**Query** Find the recorded % PHAKPA (F129L) Disease level P6 at 16 ppm belonging to `CNC(=O)/C(=N/OC)c1cccc(C)c1CO/N=C(\C)c1cc(Cl)cc(C(F)(F)F)c1` and report it.
**Result** 2

**Query** Consider the molecule `CO/N=C(/C(=O)OC)c1cccc(C)c1CO/N=C(\C)c1c(F)cccc1C(F)(F)F` and give its measured % PHAKPA (F129L) Disease level P6 at 16 ppm.
**Result** 43
